# tested-system: T1, human ACTH 1-39 (human)
# T1 peptide: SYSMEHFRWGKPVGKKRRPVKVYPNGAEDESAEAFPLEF
# protocol-notes: cell-based or functional assay
Listed next: entries and their corresponding MC2R IC50.
State just the number; it will be interpreted in nM.

1. Ab5 (antibody, human IgG1, kappa, N297A, V domains shown, rabbit/human chimeric antibody, made in HEK-293) VH: QSVEESGGRLVTPGTPLTLTCTVSGFSLSSYAMSWVRQAPGEGLEWIGIISDSGSTYYASWAKGRFTISKTSTTVDLKITSPTTEDTATYFCAREPEYGYDDYGDWVSDLWGQGTLVTVSS VL: DIVMTQTPASVSEPVGGTVTIKCQASQSISSYLSWYQQKPGQPPKLLIYRASTLASGVPSRFKGSGSGTQFTLTISDLECADAATYYCQSYYYSSSITYRNAFGGGTEVVVKR: 0.11
2. Ab3 (antibody, human IgG1, kappa, N297A, V domains shown, rabbit/human chimeric antibody, made in HEK-293) VH: QSLEESGGRLVTPGTPLTLTCTVSGSSLSNFDMIWVRQAPGKGLESIGIIYDFGSTYYASWAKGRFTISRTSSTTVDLKIISPTIEDTATYFCVKGVSNIWGQGTLVTVSS VL: DVVMTQTPASVEAAVGGTVTIKCQASEDISSNLAWYQQKLGQPPKLLIYSASTLASGVPSRFKGSGSGTEFTLAISDLECADAATYYCQSYDGSSSSSYGIGFGGGTEVVVKR: 0.29
3. Ab6 (antibody, human IgG1, kappa, N297A, V domains shown, rabbit/human chimeric antibody, made in HEK-293) VH: QSVEESGGRLVTPGTPLTLTCTVSGFSLTDYAMSWVRQAPGEGLEWIGIISDSGSTYYASWAKGRFTFSKTSTTVDLRITSPTTEDTATYFCAREPEYGYDEYGDWVSDLWGPGTLVTVSS VL: DIVMTQTPASVEAAVGGAVTIKCQATQSIGNNLAWYQQKPGQPPKLLIYRASTLASGVPSRFKGSGSGTEFTLTISDLECADAATYYCQSYYYSSSITYHNAFGGGTEVVVKR: 0.03
4. Ab2 (antibody, human IgG1, kappa, N297A, V domains shown, rabbit/human chimeric antibody, made in HEK-293) VH: QSVEESGGRLVTPGTPLTLTCTVSGFSLSKYDMIWVRQAPGKGLESIGIIYDDGDTYYASWAKGRFTISQTSTTVDLKIISPTTEDTATYFCVKGVSNIWGQGTLVTVSS VL: DVVMTQTPASVEAAVGGTVTIKCQASQSISNYLAWYQQKTGQPPKLLIYSASTLASGVPSRFKGSGSGTEFTLTISDLECADAATYYCQSYEGSSSSSYGVGFGGGTEVVVKR: 0.25

Continue with the next binder.
Input Ab11 (antibody, human IgG1, kappa, N297A, V domains shown, rabbit/human chimeric antibody, made in HEK-293) VH: QSLEESGGRLVTPGTSLTLTCTASGFSLSAYDILWVRQAPGKGLESIGMMYDDGDTYYATWAKGRFIISRTSTTMDLKIISPTTEDTATYFCVKGVSNIWGQGTLVTVSS VL: DIVMTQIPASVEAAVGGTVTIKCQASQSIDSSLAWYQQKPGQPPKLLIYSASTLASGVPSRFKGSGSGTEFTLTIGDLECADAATYYCQSYDGSSSSYYGIGFGGGTEVVVKR , output reported MC2R IC50.
0.03
